assayed.target: erythrocytes infected with P. falciparum field isolate 9605
test.description: flow cytometry, staining of IEs
% parasite recognition for assorted binders
Numeric only. Scale: %

| binder | reported.value |
| --- | --- |
| MGD30 (antibody) VH: QVQLQESGPGLVKPSETLSLSCAVTGGSITSSKWWTWVRQGPDKGLEWIGKIYHNGTTNYNPSLKSRVAMSVDKSRNQFSLRLTSVTAADTALYYCATASPFKSHHRTTEKLPRPSISAEPGTVIPLGSRVTFVCRGPVGVQTFRLERETSFTYNDTEDVSQVSPSESEARFRIDSVSEGYAGPYRCVYYKAPKWSEQSDYLDLLVKGEDVTWALTQPQLDPRACPQGDLRMSTDIYCMDVWGKGTTVTVSS VL: AIRLTQSPSSLSASIGDRVTITCRASQDISTFLAWYQQESGKAPRLLIFAASTLQTGVPSRFSGSGSGTDFTLTISGLQSEDFATYYCQQYYCFPPDFGQGTRLDIK | 7.4 |
| MGD34 (antibody) VH: EVQLVESGPGLMKTSGTLSLTCAVSGDYVNTNRRWSWVRQAPGKGLEWIGEVHQSGRTNYNPSLKSRVTISVDKSKNQFSLKVDSVTAADTAVYYCARASPLKSQRDTEDLPRPSISAEPGTVIPLGSHVTFVCRGPVGVQTFRLERERNYLYSDTEDVSQTSPSESEARFRIDSVNAGNAGLFRCIYYKSRKWSEQSDYLELVVKGEDVTWALSQSQVDPRACPQGELPISTDIYYVDVWGNGTTFTVSS VL: AIRMTQSPSSLSASPGDKVSITCRASQHINDSLAWFQQRPGKAPKLLIYGASNLHSGVPSRFSGTGSGTDFTLTITGLQSEDFATYFCQQCNCFPPDFGQGTRLEIK | 28.4 |
| MGC37 (antibody) VH: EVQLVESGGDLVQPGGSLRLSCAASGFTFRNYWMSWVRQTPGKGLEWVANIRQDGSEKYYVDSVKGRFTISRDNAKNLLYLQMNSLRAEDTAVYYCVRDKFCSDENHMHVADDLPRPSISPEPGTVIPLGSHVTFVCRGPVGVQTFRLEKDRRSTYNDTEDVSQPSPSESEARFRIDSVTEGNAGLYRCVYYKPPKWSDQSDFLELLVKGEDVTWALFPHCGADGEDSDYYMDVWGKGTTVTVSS VL: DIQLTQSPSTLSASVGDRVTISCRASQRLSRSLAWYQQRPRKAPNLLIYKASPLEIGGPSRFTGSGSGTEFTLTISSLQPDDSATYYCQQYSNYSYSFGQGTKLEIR | 22.2 |
| MGD39 (antibody) VH: QVRLQESGPGLVKPSGTLSLTCTVSGGSISAYRWWSWVRQAPGKGLEWIGQVYNDGNTNYNPSLKGRVAMSVDKSKNRFSLRLASVTAADTAVYYCATISPLRPQSDTDDLPRPSISAEPGTVIPLGSHVTFVCRGPIGVQTFRLERERRSLYSDTEDVSQVSPFASEARFRIDSVSEGNAGPYRCIYYKDRKWSDQSDYLELLVKGEDVTWALPQSQLAPRACPQEELNISTDIFSMNVWGKGTTVTVSS VL: AIRMTQSPASLSASIGDRVTITCRTSHDVGNYLDWYQQKPGKAPKLLIHGASTLQTGVPSRFSGSGAGTDFTLNITCLQSGDFAMYYCQQYYSSPPGFGQGTRLEIK | 31.7 |
| MGD56 (antibody) VH: QVQLQESGPGLVKPSGTLSLTCAVSGGSITTNNWWSWVRQTPGKGLEWIGEIFRSGTTNYNPSLKSRVAISLDKSKNQFSLKLTSVTAADTAVYYCATASPFKSQRDTKDLPRPSLSAEPGTVIPLGSHVTFVCRGPVGVQTFRLQRESRSLYNDTEDVSHPSPSESEARFRIDSVSEGNAGPYRCVYYKSSKWSEESDCLELLVKTEDVTWARPQPQLDPRACPRGDLRISTDVYYMDVWGKGTTVTVSS VL: AIRMTQSPSSLSASTGDRVTITCRASQAITSYLAWYRQKPGKAPDLLIYNASTLQSGVPSRFSASGSGTDFALTITGLQSEDFVIYFCQHYYTYPPAFGQGTRLEIK | 17.3 |

INPUT: What value of % parasite recognition has been recorded for this entry: MGC28 (antibody) VH: EVQLVESGGGLVQPGGSLRLSCEASGFTFSSYWMTWVRQAPGKGLEWVANINQDGSERYYVDSVKGRFTISRDTVKNSLYLQMNNLRAEDTAVYYCARQRFCSDGSLFHGEDLPRPTISAETGTVISLGSHVTFVCRGPLGVQTFRLERESRSRYSETEDVSQVGPSESEARFRIDSVSEGNAGLYRCIYYKPPKWSEQSDYLELRVKGEDVTWALLTYCGGDRDESDYYMDVWGKGTTVTVSS VL: QTVVTQEPSLTVSPGGTVTLTCASSTGSVTSGSFPNWFQQTPGQAPRSLIYSTTKKHSWTPARFSGSLLGGKAALTVSDTQPEDEAEYYCLLYCGGGQPWVFGGGTKLTVL
OUTPUT: 20.9

INPUT: What value of % parasite recognition has been recorded for this entry: MGC17 (antibody) VH: EVQLVESGGGLVQPGGSLKLSCVASGFNFRKSWMSWVRQAPGKGLEWVANIREDGSKAYYVDSVKGRFTVSRDNAKNSLYLQINSLRADDTAVYYCARDRFCSDDEDHSHGAEDLPRPSISAEEGTVIPLGSRLTFVCRGPVGVHTFRLERDRRSTYNDTEDVSHPSPSESEARFRIDSVSEGNAGLYRCVYYKSPEWSKQSDYLELLVKGQEVTWALFTSCGGDGEVPDYDMDVRGKGTTVTVSS VL: DIVMTQSPDSLAVSLGERATINCKSSQSVLYRSKNKKYLAWFQQRPGQPPKVLIYWTSTRASGVPDRFSGSGSGTDFTLTISSLQADDVAVYYCQQYFIFPYTFGQGTKLEIR
OUTPUT: 6.8
